I'd appreciate it if you could supply CDMF75 IC15 values for the items below.
STUDY_TARGET: bovine cardiac myofibrils (full-length cardiac myosin ATPase in the native sarcomere) (Bos taurus (Bovine), UniProt Q9BE39)
Sequence (Q9BE39 whole entry): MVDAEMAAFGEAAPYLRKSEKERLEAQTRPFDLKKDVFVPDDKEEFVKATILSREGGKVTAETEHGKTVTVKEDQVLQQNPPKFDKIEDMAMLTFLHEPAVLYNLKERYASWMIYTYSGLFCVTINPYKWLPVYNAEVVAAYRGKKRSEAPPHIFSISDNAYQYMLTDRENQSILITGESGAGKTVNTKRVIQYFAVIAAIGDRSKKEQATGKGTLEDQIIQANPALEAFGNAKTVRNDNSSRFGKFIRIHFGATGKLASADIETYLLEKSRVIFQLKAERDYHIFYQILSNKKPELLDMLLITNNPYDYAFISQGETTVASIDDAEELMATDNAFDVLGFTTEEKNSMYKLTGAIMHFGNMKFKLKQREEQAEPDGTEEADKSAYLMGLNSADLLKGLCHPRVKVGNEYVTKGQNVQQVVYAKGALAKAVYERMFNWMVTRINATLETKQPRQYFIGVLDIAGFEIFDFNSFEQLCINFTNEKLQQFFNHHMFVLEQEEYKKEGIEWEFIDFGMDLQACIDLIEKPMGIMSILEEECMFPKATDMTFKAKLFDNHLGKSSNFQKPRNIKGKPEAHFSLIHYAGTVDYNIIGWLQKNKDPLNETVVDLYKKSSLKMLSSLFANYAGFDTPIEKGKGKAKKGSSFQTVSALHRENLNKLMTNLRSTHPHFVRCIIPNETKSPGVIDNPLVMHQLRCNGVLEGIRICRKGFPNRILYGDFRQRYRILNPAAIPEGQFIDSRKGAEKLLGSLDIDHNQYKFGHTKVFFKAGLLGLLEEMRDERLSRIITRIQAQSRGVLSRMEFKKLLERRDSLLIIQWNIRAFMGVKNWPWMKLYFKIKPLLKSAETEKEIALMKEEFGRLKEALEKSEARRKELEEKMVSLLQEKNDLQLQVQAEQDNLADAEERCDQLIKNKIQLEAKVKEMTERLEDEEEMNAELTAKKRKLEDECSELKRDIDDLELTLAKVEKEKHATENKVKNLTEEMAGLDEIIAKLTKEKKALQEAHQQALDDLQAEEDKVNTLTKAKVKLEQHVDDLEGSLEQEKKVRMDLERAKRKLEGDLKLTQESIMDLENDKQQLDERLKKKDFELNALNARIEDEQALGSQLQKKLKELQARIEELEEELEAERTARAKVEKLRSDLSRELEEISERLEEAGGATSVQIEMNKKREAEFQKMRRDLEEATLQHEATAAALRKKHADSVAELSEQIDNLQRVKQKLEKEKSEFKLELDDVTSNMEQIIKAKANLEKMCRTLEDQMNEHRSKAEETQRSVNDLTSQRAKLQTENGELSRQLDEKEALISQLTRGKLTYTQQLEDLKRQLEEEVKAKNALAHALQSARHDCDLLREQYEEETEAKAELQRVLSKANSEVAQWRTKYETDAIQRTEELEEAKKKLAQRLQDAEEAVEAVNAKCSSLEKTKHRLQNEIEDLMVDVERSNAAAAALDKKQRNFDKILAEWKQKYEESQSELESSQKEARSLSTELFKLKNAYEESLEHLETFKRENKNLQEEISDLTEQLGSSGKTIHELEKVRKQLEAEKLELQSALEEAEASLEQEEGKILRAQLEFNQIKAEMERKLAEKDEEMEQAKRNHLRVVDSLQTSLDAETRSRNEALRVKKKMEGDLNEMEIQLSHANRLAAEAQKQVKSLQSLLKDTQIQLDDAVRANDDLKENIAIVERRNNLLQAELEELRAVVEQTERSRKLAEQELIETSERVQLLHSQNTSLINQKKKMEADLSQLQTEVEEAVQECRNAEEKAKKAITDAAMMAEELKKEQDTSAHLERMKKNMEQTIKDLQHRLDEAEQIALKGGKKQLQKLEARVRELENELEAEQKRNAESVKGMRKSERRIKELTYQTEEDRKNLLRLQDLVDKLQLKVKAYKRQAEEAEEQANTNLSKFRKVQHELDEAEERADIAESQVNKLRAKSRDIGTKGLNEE
Sequence (P85100 whole entry partner): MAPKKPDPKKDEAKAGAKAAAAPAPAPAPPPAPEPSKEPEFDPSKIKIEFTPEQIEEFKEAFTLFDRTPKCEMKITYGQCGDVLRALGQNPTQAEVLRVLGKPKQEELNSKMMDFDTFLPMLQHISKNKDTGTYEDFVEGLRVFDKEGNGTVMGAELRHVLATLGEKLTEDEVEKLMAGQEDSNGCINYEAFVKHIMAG
Sequence (Q3SZE5 whole entry partner): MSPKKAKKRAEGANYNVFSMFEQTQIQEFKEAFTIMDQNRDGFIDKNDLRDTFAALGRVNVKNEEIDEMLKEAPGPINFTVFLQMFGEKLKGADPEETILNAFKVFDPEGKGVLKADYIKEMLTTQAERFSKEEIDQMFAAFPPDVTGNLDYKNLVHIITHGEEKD
MEASUREMENT_PROTOCOL: Skinned bovine cardiac myofibril ATPase assay (PK/LDH-coupled)
Format: biochemical
CONDITION_CONTEXT: Ca2+ activating to 75% of maximal rate, concentration giving 15% inhibition
Give bare numbers, in µM.

These recorded examples may help you get a feel for the data.
# MOLECULE, CDMF75 IC15 [µM]
records = [
    ("CCc1nc(-c2ccc3c(c2)CC[C@H]3NC(=O)c2cccc(C(=O)OC)c2)no1 [Compound 648]", 0.4),
    ("CCc1nc(-c2ccc3c(c2)CC[C@H]3NC(=O)c2cc(C)on2)no1 [Compound 569]", 0.7),
]

Each of the following entries comes with a recorded value; kindly state CDMF75 IC15 for each.
1. [2H]C([2H])([2H])c1nc(-c2ccc3c(c2)OC[C@H]3NC(=O)c2cnc(C)o2)no1 [Compound 267]
2. CCc1nc(-c2ccc3c(c2)CC[C@H]3NC(=O)c2ccc(C)nc2)no1 [Compound 625]

1. 1.2
2. 0.8

---

STUDY_TARGET: bovine cardiac myofibrils (full-length cardiac myosin ATPase in the native sarcomere) (Bos taurus (Bovine), UniProt Q9BE39)
MEASUREMENT_PROTOCOL: Skinned bovine cardiac myofibril ATPase assay (PK/LDH-coupled)
Type: biochemical
CONDITION_CONTEXT: Ca2+ activating to 75% of maximal rate, concentration giving 15% inhibition
Classify by measured CDMF75 IC15: label 1 if it is equal to or exceeds 900 nM, label 0 if it is smaller.

Worked examples, 2 compounds total:
# COMPOUND, CATEGORY_LABEL
data = [
    ("CCc1nc(-c2ccc3c(c2)CC[C@H]3NC(=O)c2ncncc2C)no1", "label 0"),
    ("COCc1nc(-c2ccc3c(c2)CC[C@H]3NC(=O)c2cn(C)nc2C)no1", "label 1"),
]

Does `O=C(N[C@@H]1CCc2cc(-c3noc(C(F)F)n3)ccc21)c1cc(O)no1` have a reported CDMF75 IC15 of at least 900 nM?
label 1

Is it the case that `Cc1nc(-c2ccc3c(c2)CC[C@H]3NC(=O)c2cccc([C@H](C)O)c2)no1` has CDMF75 IC15 reaching or exceeding 900 nM?
label 0

API: above_or_equal(metric=CDMF75 IC15, cutoff=900 nM) for item `Cc1c(C(=O)N[C@@H]2CCc3cc(-c4noc(C(F)F)n4)ccc32)cnn1CCO`
label 0

Does the reported CDMF75 IC15 for `Cc1ncoc1C(=O)N[C@@H]1COc2cc(-c3noc(C(F)F)n3)ccc21` fall at or above the 900 nM mark?
label 0

Confirm if CDMF75 IC15 reported for the compound `Cc1noc(-c2ccc3c(c2)CC[C@H]3NC(=O)c2cnc(C)n2C)n1` is 900 nM or above.
label 1

Assess whether reported CDMF75 IC15 for `Cn1nnc(C(=O)N[C@@H]2CCc3cc(-c4noc(C(F)F)n4)ccc32)n1` sits at 900 nM or higher.
label 0

Could you please find out whether `CCc1nc(-c2ccc3c(c2)CC[C@H]3NC(=O)c2ccc(=O)n(CC(=O)O)c2)no1` has CDMF75 IC15 that meets 900 nM or exceeds it?
label 1

Check if CDMF75 IC15 >= 900 nM (inclusive). Item: `CCc1nc(-c2ccc3c(c2)CC[C@H]3NC(=O)c2cnn(CC(=O)O)c2)no1`
label 1
